Molecular target: ChEH (Homo sapiens, UniProt Q15125+Q9UBM7)
Sequence (Q15125 whole entry): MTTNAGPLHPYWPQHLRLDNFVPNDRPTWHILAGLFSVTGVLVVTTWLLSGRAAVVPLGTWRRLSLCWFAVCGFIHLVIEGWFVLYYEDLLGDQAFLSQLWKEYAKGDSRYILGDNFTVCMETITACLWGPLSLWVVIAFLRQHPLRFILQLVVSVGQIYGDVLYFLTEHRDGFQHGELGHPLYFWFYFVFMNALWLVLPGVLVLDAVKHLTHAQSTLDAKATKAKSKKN
Sequence (Q9UBM7 whole entry): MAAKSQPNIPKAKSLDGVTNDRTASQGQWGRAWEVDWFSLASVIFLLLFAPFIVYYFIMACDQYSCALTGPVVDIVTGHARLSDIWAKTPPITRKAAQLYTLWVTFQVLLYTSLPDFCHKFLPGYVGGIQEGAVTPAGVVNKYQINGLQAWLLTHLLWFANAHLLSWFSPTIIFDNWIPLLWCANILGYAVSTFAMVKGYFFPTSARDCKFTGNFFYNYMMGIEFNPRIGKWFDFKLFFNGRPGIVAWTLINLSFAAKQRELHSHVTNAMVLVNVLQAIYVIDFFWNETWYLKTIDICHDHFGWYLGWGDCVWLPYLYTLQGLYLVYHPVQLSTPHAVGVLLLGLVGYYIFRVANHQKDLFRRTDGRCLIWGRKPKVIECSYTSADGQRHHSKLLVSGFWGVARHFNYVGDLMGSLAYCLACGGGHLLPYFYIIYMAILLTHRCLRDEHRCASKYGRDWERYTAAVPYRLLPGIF
Assay: ChEH activity measured on intact cells
Assay type: cell-based
Design: endogenous in cells; host or cells: LP-1 human multiple myeloma cell lines
Conditions: LP-1 intact cells, [14C]-5,6-EC 0.6 μM, drugs 1 nM to 10 μM over 24 h; read-out: ChEH IC50
QUANTITY: pIC50
Give bare numbers, as −log10 of the molar value.

Value lookup for pIC50; key = CN(C)CCOc1ccc([C@H]2C[C@]3(C)[C@@H](O)CC[C@H]3[C@@H]3CCc4cc(O)ccc4[C@H]32)cc1 [RU 39411]
6.14

---

System: HMCLs
Test: Free sterol accumulation in HMCLs
Assay type: cell-based, human
Method: The organic layer was reduced to dryness under a flux of argon and the residue was resuspended in ethanol. Sterols were analyzed by liquid chromatography and gas-liquid chromatography as described before. Neutral lipids and sphingomyelin analyses were done according to previously published procedures.
QUANTITY: free sterol accumulated

1. CC/C(=C(\c1ccccc1)c1ccc(OCCN(C)C)cc1)c1ccccc1 | accumulation zymostenol
2. Cl.c1ccc(Cc2ccc(OCCN3CCCC3)cc2)cc1 | accumulation zymostenol

---

Target: ChEH (Homo sapiens, UniProt Q15125+Q9UBM7)
Experiment: ChEH activity measured on intact cells
Format: cell-based
Design: endogenous in cells; host or cells: RPMI 8226 human multiple myeloma cell lines
Conditions: RPMI 8226 intact cells, [14C]-5,6-EC 0.6 μM, drugs 1 nM to 10 μM over 24 h; read-out: ChEH IC50
QUANTITY: pIC50
Numbers only, as −log10 of the molar value.

Value lookup for pIC50; key = CN(C)CCOc1ccc([C@H]2C[C@]3(C)[C@@H](O)CC[C@H]3[C@@H]3CCc4cc(O)ccc4[C@H]32)cc1
6.20

---

Biological target: AEBS (Homo sapiens, UniProt Q15125+Q9UBM7)
Test: Binding to the AEBS in RPMI 8226
QUANTITY: Ki (µM)
Numbers only, in µM.

1) CN(C)CCOc1ccc([C@H]2C[C@]3(C)[C@@H](O)CC[C@H]3[C@@H]3CCc4cc(O)ccc4[C@H]32)cc1 | 0.0294

Would you kindly look at the next entry?
API: value(readout=Ki, system=AEBS (Homo sapiens, UniProt Q15125+Q9UBM7)) for record Cl.c1ccc(Cc2ccc(OCCN3CCCC3)cc2)cc1
0.0042

---

Molecular target: ChEH (Homo sapiens, UniProt Q15125+Q9UBM7)
Test: ChEH activity in HMCLs (TLC)
Assay type: cell-based
Design: endogenous in cells; host or cells: RPMI 8226 and LP-1 human multiple myeloma cell lines
Settings: read-out: concentration up to which ChEH was not inhibited
pIC50: −log10 of the molar value.
QUANTITY: pIC50

Value lookup for pIC50; key = C[C@]12C[C@H](c3ccc(OCCCCCS(=O)(=O)CCCC(F)(F)C(F)(F)F)cc3)[C@@H]3c4ccc(O)cc4CC[C@H]3[C@@H]1CC[C@@H]2O
< 5.00

---

Target: ChEH (Homo sapiens, UniProt Q15125+Q9UBM7)
Assay: ChEH activity measured on intact cells
Format: cell-based
Parameters: endogenous in cells; host or cells: RPMI 8226 human multiple myeloma cell lines
QUANTITY: pIC50
Answers are plain numbers, as −log10 of the molar value.

Value lookup for pIC50; key = Cl.c1ccc(Cc2ccc(OCCN3CCCC3)cc2)cc1
6.03
